- System: A549 NSCLC
- Assay comment: NCI tumour cell line growth inhibition, 48 h
Quantity measured: GI50

Answered examples (9):
{"columns": ["Compound", "GI50"],
 "data": [
  ["CCOC(=O)c1ccc2c(c1)[n+](=O)c(C(C)=O)c(C(F)(F)F)n2[O-]", "2.04 µM"],
  ["Cc1ccc(-c2nc([P+](c3ccccc3)(c3ccccc3)c3ccccc3)c(Nc3ccccc3)o2)cc1", "1.15 µM"],
  ["O=C(c1ccccc1)n1c(-c2ccccc2)cs/c1=N\\S(=O)(=O)c1ccc(N2N=C3c4ccccc4CC3C2c2cccs2)cc1 (stereo not given)", "39.5 µM"],
  ["COc1cc(NCCN=C(N)NC(N)=NC(C)C)c2ncccc2c1", "37.3 µM"],
  ["O=C(CC(=O)c1cccc(Cl)c1)c1cccc(Cl)c1", "4.68 µM"],
  ["C[C@@H]1COCCN1c1cc(C2([S@@](C)(=N)=O)CC2)nc(-c2ccnc3[nH]ccc23)n1", "4.27 µM"],
  ["CC1=C(C)C2(O)C(=C(C)C1=O)/C(=C(/O)c1ccccc1)c1nc3ccccc3n12 (stereo not given)", "19.3 µM"],
  ["Cc1c(C(N)=O)sc2c1c(=O)n(Cc1ccccc1)c1nnc(-c3ccc(Br)cc3)n21", "2.51 µM"],
  ["COc1ccccc1NS(=O)(=O)c1ccc2oc(SC(C)C)nc2c1", "16.3 µM"]
]}

Record c1ccc([As]=[As]c2ccccc2)cc1 (stereo not given) . Reported GI50: 1.87 µM
